# Tested on: AncSZ;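 further: 11-residue human phosphosite peptides and single-mutation variants displayed on the E. coli surface, counted by deep sequencing, each peptide's frequency after selection divided by its frequency in the unselected input library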;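 further: frequency after pTyr selection over input frequency; kinase dosed for 20-30% of maximal phosphorylation in three min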
# test-description: phosphorylation enrichment, bacterial display (enrichment ratio); higher = better substrate or ligand; peptides without Tyr show the background
Assign phosphorylation enrichment to each entry below.
One number for each entry.

As a guide, the following entries are already answered.
WKEIEYEVVRD [CPS1_Y634]	1.31
STLEVYSCHPP [IL21R_Y317]	1.33
DAHFTYSRFPW [LY75_Y888_D884A_YF]	1.05
ADDSFYTARSA [ZAP70_Y493_YF]	0.822
HCFAAYFQQGD [GPI_Y351_R347C]	1.72
HSGIYYKPESL [L2HGDH_Y103]	1.59
NELTFYCCKKD [CD59_Y87_YF]	1.39
GKVFIYHGSSL [ITGA7_Y458]	1.19

Batch of 4 sequences: report phosphorylation enrichment for each.
1. NGVSYYINLCQ [IGF2R_Y2025]
2. LNECHYGALIG [BPGM_Y92_R90C]
3. EREYKYGAHKY [OAT_Y50_N54K]
4. RGEEPYTKKAL [TTC21B_Y160_K157E]

1.19
0.996
0.626
0.715
